Assay system: CBX4 chromodomain (CBX4 ChD), N-terminal His6-tagged recombinant protein (UniProt O00257)
Assay overview: competitive fluorescence polarization (FP) assay, displacement of the FITC-labelled probe
Square brackets hold non-standard residues; d marks the D form. Ends that are not written are not given here. Tyr(3-Cl) = N[C@@H](Cc1ccc(O)c(Cl)c1)C(=O)O
Metric name: IC50

Could you tell me which IC50 is on file for [Tyr(3-Cl)]PIK(trimethyl)S-NH2 (also: N-terminal acylation, acyl group not given here) [KED98 (PP)] ?
173 µM
